The values you see were collected from PubChem BioAssay AID1159580.

Test method notes: chemical genetic growth profiling, strain panel (AID 1159580);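 further: tested at 20 µM; growth read once vehicle control cultures reached saturation at 30 °C; lower values mean less growth of the strain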
Settings: S. cerevisiae deletion strains, growth OD, locus YDR334W, strain swr1
About 2,000 (36%) of roughly 5,500 compounds were called active. Roughly 18% stayed inconclusive and do not appear here. No stated cut-off is given here; in the data, active means normalized growth mostly below about 0.91 (no sharp cut-off); inconclusive means no clear call, values can overlap the other calls; inactive means mostly above about 0.92. The list shows a part of the results. Where a SMILES comes first, the peptide text is derived from it.
Outcomes: y (active), n (inactive)

molecule="C[C@@H]1CC[C@H]2C(C)(C)C3CC12CC[C@@]3(C)O (stereo partly specified)" class=n
molecule="CC1C/C=C/C=C/C=C/C=C/C(O[C@@H]2O[C@H](C)[C@@H](O)[C@H](N)[C@@H]2O)CC2OC(O)(CC(O)CC3OC3/C=C/C(=O)O1)CC(O)C2C(=O)O (stereo partly specified)" class=n
molecule=NCCCCCC(=O)O class=n
molecule="Clc1ccc(CSC(Cn2ccnc2)c2ccc(Cl)cc2Cl)cc1 (stereo unspecified)" class=y
molecule=O=C(O)CCCCCCCC(=O)O class=n
molecule="CC1[C@H](C)OC(=O)CC(O)CC(O)CC(O)CCC(O)C(O)C[C@]2(O)CC(O)C(C(=O)O)C(CC(OC3O[C@H](C)[C@@H](O)[C@H](N)[C@@H]3O)/C=C/C=C/C=C/C=C/CC/C=C/C=C/[C@H](C)[C@H]1O)O2 (stereo partly specified)" class=y
molecule="COc1ccnc(CS(=O)c2nc3ccc(OC(F)F)cc3[nH]2)c1OC (stereo unspecified)" class=n
molecule="CC(=O)OCC(=O)[C@@]1(O)CCC2C3CCC4=CC(=O)C=CC4(C)C3[C@@H](O)C[C@@]21C (stereo partly specified)" class=n
molecule=CC(=O)N[C@@H](CCC(=O)O)C(=O)O class=n
molecule=Clc1ccc(CO/N=C(/Cn2ccnc2)c2ccc(Cl)cc2Cl)c(Cl)c1 class=y
molecule="CC12CCCCC1(Br)[N+](=O)N2[O-] (stereo unspecified)" class=n
molecule=Cc1onc(-c2ccccc2)c1-c1ccc(S(N)(=O)=O)cc1 class=n
molecule="COc1ccc2nc(S(=O)Cc3ncc(C)c(OC)c3C)[nH]c2c1 (stereo unspecified)" class=n
molecule="COc1ccc(CCC(=O)c2c(O)cc(O[C@@H]3O[C@H](CO)C(O)[C@H](O)C3O[C@@H]3O[C@@H](C)[C@H](O)[C@@H](O)[C@H]3O)cc2O)cc1O (stereo partly specified)" class=n
molecule=O=C(O)COc1ccc(Cl)cc1Cl class=n
molecule=NCCCCC(=O)O class=n
molecule="CC(=O)N[C@@H](CC(=O)O)C(=O)N[C@@H](CCC(=O)O)C(=O)O (Ac-Asp-Glu-OH)" class=n
molecule="Clc1ccc(COC(Cn2ccnc2)c2ccc(Cl)cc2Cl)cc1 (stereo unspecified)" class=y
molecule=COc1cc(C)c2c(=O)cc(-c3ccccc3)oc2c1 class=n
molecule="CC1(C)N([O-])[N+](=O)C1(C)Br (stereo unspecified)" class=n
molecule="Clc1ccc(COC(Cn2ccnc2)c2ccc(Cl)cc2Cl)c(Cl)c1 (stereo unspecified)" class=y
